Molecular target: MDMX (Homo sapiens, UniProt O15151)
Sequence (O15151 1-125): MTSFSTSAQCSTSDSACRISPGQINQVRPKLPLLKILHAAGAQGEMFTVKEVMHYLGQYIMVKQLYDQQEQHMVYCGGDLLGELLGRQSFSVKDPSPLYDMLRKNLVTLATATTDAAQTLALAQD
Assay: Competitive fluorescence polarization assay for MDMX
Assay type: binding
Settings: competitive FP assay, read-out: IC50 (MDMX)
Where a SMILES comes first, the peptide text is derived from it. Bridges are numbered along the chain shown (N, C = ends). [ ]: non-standard residue; d: D form. R8 = C=CCCCCCC[C@@](C)(N)C(=O)O; Chg = N[C@H](C(=O)O)C1CCCCC1; S5 = C=CCCC[C@](C)(N)C(=O)O
# IC50 per entry

[
  {
    "Compound": "CCCC[C@H](NC(=O)[C@H](C)NC(=O)[C@H](C)NC(=O)[C@]1(C)CCCC=CCCCCCC[C@@](C)(NC(=O)[C@H](Cc2ccccc2)NC(=O)[C@@H](NC(=O)[C@H](CC(C)C)NC(C)=O)[C@@H](C)O)C(=O)N[C@@H](C)C(=O)N[C@@H](Cc2ccc(O)cc2)C(=O)N[C@@H](Cc2c[nH]c3ccccc23)C(=O)N[C@@H](C)C(=O)N[C@@H](CCC(N)=O)C(=O)N[C@@H](CC(C)C)C(=O)N1)C(=O)N[C@@H](C)C(=O)N[C@@H](C)C(N)=O",
    "Tgt": "MDMX (Homo sapiens, UniProt O15151)",
    "IC50": "100 to 1000 nM"
  },
  {
    "Compound": "CC(=O)N[C@@H](Cc1ccccc1)C(=O)N[C@]1(C)CCCCCCC=CCCC[C@@](C)(C(=O)N[C@@H](CCC(N)=O)C(=O)N[C@@H](Cc2c[nH]cn2)C(=O)N[C@H](C(=O)N[C@H](CC(C)C)C(N)=O)C2CCCCC2)NC(=O)[C@H](CC(C)C)NC(=O)[C@H](CCC(N)=O)NC(=O)[C@H](C(C)C)NC(=O)[C@H](Cc2c[nH]c3ccccc23)NC(=O)[C@H](Cc2ccc(O)cc2)NC(=O)[C@H](C)NC1=O [compound 40] (Ac-F[R8]AYWVQL[S5]QH[Chg][dL]-NH2; staple 2-9)",
    "Tgt": "MDMX (Homo sapiens, UniProt O15151)",
    "IC50": "100 to 1000 nM"
  }
]

----------
Target: MDM2 (Homo sapiens, UniProt Q00987)
Sequence (Q00987 1-125): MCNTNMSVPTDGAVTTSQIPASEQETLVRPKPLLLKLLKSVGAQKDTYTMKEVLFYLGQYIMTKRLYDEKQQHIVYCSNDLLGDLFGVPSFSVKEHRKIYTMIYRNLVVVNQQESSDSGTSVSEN
Test: Competitive fluorescence polarization assay for MDM2
Type: binding
Details: competitive FP assay, MDM2; read-out: Ki (MDM2)
Where a SMILES comes first, the peptide text is derived from it. Bridges are numbered along the chain shown (N, C = ends). [ ]: non-standard residue; d: D form. R8 = C=CCCCCCC[C@@](C)(N)C(=O)O; Cba = N[C@@H](CC1CCC1)C(=O)O; hLeu = CC(C)CC[C@H](N)C(=O)O; S5 = C=CCCC[C@](C)(N)C(=O)O; Nle = CCCC[C@H](N)C(=O)O
# Ki per entry
Test readout: Ki

[
  {
    "Compound": "CC(=O)N[C@@H](CC(C)C)C(=O)N[C@H](C(=O)N[C@@H](Cc1ccccc1)C(=O)N[C@]1(C)CCCCCCC=CCCC[C@@](C)(C(=O)N[C@@H](CO)C(N)=O)NC(=O)[C@H](CC(C)C)NC(=O)[C@H](CCC(N)=O)NC(=O)[C@H](C)NC(=O)[C@H](Cc2c[nH]c3ccccc23)NC(=O)[C@H](C)NC(=O)[C@H](Cc2c[nH]cn2)NC1=O)[C@@H](C)O (single isomer, unassigned) [compound 710]",
    "Tgt": "MDM2 (Homo sapiens, UniProt Q00987)",
    "Test readout": "Ki",
    "Data value": "10 to 100 nM"
  },
  {
    "Compound": "CC(=O)N[C@@H](CC(C)C)C(=O)N[C@H](C(=O)N[C@@H](Cc1ccccc1)C(=O)N[C@]1(C)CCCCCCC=CCCC[C@@](C)(C(=O)N[C@@H](C)C(=O)N[C@@H](C)C(=O)N[C@@H](C)C(=O)N[C@@H](C)C(=O)N[C@H](C)C(N)=O)NC(=O)[C@H](CC(C)C)NC(=O)[C@H](CCC(N)=O)NC(=O)[C@H](C)NC(=O)[C@H](Cc2c[nH]c3ccccc23)NC(=O)[C@H](Cc2ccc(O)cc2)NC(=O)[C@H](CCC(=O)O)NC1=O)[C@@H](C)O [compound 585] (Ac-LTF[R8]EYWAQL[S5]AAAA[dA]-NH2; staple 4-11)",
    "Tgt": "MDM2 (Homo sapiens, UniProt Q00987)",
    "Test readout": "Ki",
    "Data value": "10 to 100 nM"
  },
  {
    "Compound": "CC(=O)N[C@@H](CCC(=O)O)C(=O)N[C@H](C(=O)N[C@@H](Cc1ccccc1)C(=O)N[C@]1(C)CCCCCCC=CCCC[C@@](C)(C(=O)N[C@@H](CO)C(=O)N[C@@H](Cc2c[nH]c3ccccc23)C(=O)N[C@@H](C)C(N)=O)NC(=O)[C@H](CC(C)C)NC(=O)[C@H](CCC(N)=O)NC(=O)[C@H](C)NC(=O)[C@H](Cc2c[nH]c3ccccc23)NC(=O)[C@H](Cc2ccc(O)cc2)NC(=O)[C@H](C(C)C)NC1=O)[C@@H](C)O [compound 128] (Ac-ETF[R8]VYWAQL[S5]SWA-NH2; staple 4-11)",
    "Tgt": "MDM2 (Homo sapiens, UniProt Q00987)",
    "Test readout": "Ki",
    "Data value": "< 10 nM"
  },
  {
    "Compound": "CC(=O)N[C@@H](CC(C)C)C(=O)N[C@H](C(=O)N[C@@H](Cc1ccccc1)C(=O)N[C@]1(C)CCCCCC/C=C\\CCC[C@@](C)(C(=O)N[C@@H](CO)C(=O)N[C@@H](C)C(=O)N[C@@H](C)C(N)=O)NC(=O)[C@H](CCC(C)C)NC(=O)[C@H](CCC(N)=O)NC(=O)[C@H](C)NC(=O)[C@H](Cc2c[nH]c3ccccc23)NC(=O)[C@H](Cc2ccc(O)cc2)NC(=O)[C@H](C)NC1=O)[C@@H](C)O [compound 114] (Ac-LTF[R8]AYWAQ[hLeu][S5]SAA-NH2; staple (Z) 4-11)",
    "Tgt": "MDM2 (Homo sapiens, UniProt Q00987)",
    "Test readout": "Ki",
    "Data value": "< 10 nM"
  },
  {
    "Compound": "CCCC[C@H](NC(=O)[C@H](Cc1c[nH]c2ccccc12)NC(=O)[C@H](C)NC(=O)[C@]1(C)CCCC=CCCCCCC[C@@](C)(NC(=O)[C@H](Cc2ccccc2)NC(=O)[C@@H](NC(=O)[C@H](CCC(=O)O)NC(C)=O)[C@@H](C)O)C(=O)N[C@@H](CCC(=O)O)C(=O)N[C@@H](Cc2ccc(O)cc2)C(=O)N[C@@H](Cc2c[nH]c3ccccc23)C(=O)N[C@@H](C)C(=O)N[C@@H](CCC(N)=O)C(=O)N[C@@H](CC2CCC2)C(=O)N1)C(=O)N[C@H](C)C(N)=O [compound 272] (Ac-ETF[R8]EYWAQ[Cba][S5]AW[Nle][dA]-NH2; staple 4-11)",
    "Tgt": "MDM2 (Homo sapiens, UniProt Q00987)",
    "Test readout": "Ki",
    "Data value": "< 10 nM"
  },
  {
    "Compound": "CC(=O)N[C@@H](CCC(=O)O)C(=O)N[C@H](C(=O)N[C@@H](Cc1ccccc1)C(=O)N[C@]1(C)CCCCCCC=CCCC[C@@](C)(C(=O)N[C@@H](CO)C(=O)N[C@H](C(=O)N[C@@H](C)C(N)=O)C(C)C)NC(=O)[C@H](CC(C)C)NC(=O)[C@H](CCC(N)=O)NC(=O)[C@H](C)NC(=O)[C@H](Cc2c[nH]c3ccccc23)NC(=O)[C@H](Cc2ccc(O)cc2)NC(=O)[C@H](C(C)C)NC1=O)[C@@H](C)O [compound 126] (Ac-ETF[R8]VYWAQL[S5]SVA-NH2; staple 4-11)",
    "Tgt": "MDM2 (Homo sapiens, UniProt Q00987)",
    "Test readout": "Ki",
    "Data value": "< 10 nM"
  },
  {
    "Compound": "CCCC[C@H](NC(=O)[C@H](C)NC(=O)[C@H](C)NC(=O)[C@]1(C)CCCC=CCCCCCC[C@@](C)(NC(=O)[C@H](Cc2ccccc2)NC(=O)[C@@H](NC(=O)[C@H](CC(C)C)NC(C)=O)[C@@H](C)O)C(=O)N[C@@H](C)C(=O)N[C@@H](Cc2ccc(O)cc2)C(=O)N[C@@H](Cc2c[nH]c3ccccc23)C(=O)N[C@@H](CO)C(=O)N[C@@H](CCC(N)=O)C(=O)N[C@@H](CC(C)C)C(=O)N1)C(=O)N[C@@H](C)C(N)=O [compound 306] (Ac-LTF[R8]AYWSQL[S5]AA[Nle]A-NH2; staple 4-11)",
    "Tgt": "MDM2 (Homo sapiens, UniProt Q00987)",
    "Test readout": "Ki",
    "Data value": "< 10 nM"
  },
  {
    "Compound": "CCCC[C@H](NC(=O)[C@H](Cc1c[nH]c2ccccc12)NC(=O)[C@H](C)NC(=O)[C@]1(C)CCCC=CCCCCCC[C@@](C)(NC(=O)[C@H](Cc2ccccc2)NC(=O)[C@@H](NC(=O)[C@H](CCC(=O)O)NC(C)=O)[C@@H](C)O)C(=O)N[C@@H](C)C(=O)N[C@@H](Cc2ccc(O)cc2)C(=O)N[C@@H](Cc2c[nH]c3ccccc23)C(=O)N[C@@H](C)C(=O)N[C@@H](CCC(N)=O)C(=O)N[C@@H](CC2CCC2)C(=O)N1)C(=O)N[C@H](C)C(N)=O [compound 270] (Ac-ETF[R8]AYWAQ[Cba][S5]AW[Nle][dA]-NH2; staple 4-11)",
    "Tgt": "MDM2 (Homo sapiens, UniProt Q00987)",
    "Test readout": "Ki",
    "Data value": "< 10 nM"
  }
]
